Experimental Target: human TLR7 (Homo sapiens, UniProt Q9NYK1)
Construct: host or cells: HEK293
Sequence (Q9NYK1 27-1049): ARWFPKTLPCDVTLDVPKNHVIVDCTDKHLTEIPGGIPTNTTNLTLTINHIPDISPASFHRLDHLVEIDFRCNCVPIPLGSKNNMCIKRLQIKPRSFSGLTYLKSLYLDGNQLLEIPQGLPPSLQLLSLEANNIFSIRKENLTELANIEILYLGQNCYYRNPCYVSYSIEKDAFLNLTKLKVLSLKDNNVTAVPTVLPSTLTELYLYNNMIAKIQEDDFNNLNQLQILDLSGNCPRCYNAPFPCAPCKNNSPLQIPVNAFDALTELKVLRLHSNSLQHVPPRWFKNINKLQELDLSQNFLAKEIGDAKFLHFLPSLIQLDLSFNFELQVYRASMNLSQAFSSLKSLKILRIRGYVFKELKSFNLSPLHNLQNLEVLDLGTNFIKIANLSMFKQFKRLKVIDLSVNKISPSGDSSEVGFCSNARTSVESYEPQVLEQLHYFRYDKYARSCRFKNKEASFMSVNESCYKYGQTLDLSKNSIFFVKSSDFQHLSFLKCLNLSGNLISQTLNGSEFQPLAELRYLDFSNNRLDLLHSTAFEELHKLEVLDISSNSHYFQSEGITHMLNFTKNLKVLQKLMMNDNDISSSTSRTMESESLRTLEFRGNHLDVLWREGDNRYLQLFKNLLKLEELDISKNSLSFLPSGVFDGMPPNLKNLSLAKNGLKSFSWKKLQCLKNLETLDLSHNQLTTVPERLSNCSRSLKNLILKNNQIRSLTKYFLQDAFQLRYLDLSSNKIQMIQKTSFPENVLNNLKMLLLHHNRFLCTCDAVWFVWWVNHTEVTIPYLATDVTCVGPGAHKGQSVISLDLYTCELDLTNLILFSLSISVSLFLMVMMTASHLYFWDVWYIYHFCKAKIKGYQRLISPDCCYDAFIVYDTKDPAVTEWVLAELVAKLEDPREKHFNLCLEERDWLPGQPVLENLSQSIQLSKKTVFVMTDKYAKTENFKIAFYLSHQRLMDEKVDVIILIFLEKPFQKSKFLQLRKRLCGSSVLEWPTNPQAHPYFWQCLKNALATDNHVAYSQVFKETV
Protocol Text: TLR7 reporter cell assay (HEK293 cells stably expressing human TLR7 with NF-κB-driven SEAP reporter)
Type: cell-based
Study Conditions: HEK293; 500 μM compound; SEAP activity (OD 650 nm) relative to 28.5 μM resiquimod; 15-24 hours; read-out: Response at 500 μM Compound as a Percent of Resiquimod Response
Measured Endpoint: Emax at 500 µM

State the recorded Emax at 500 µM for this entry: C#CCn1c(=O)n([C@@H]2O[C@H](C(=O)OC)C[C@H]2O)c2nc(N)[nH]c(=O)c21 [Compound 39]
< 5%

State the recorded Emax at 500 µM for this entry: C#CCn1c(=O)n([C@@H]2O[C@H](C(N)=O)C[C@H]2O)c2nc(N)[nH]c(=O)c21 [Compound 41]
< 5%

State the recorded Emax at 500 µM for this entry: Nc1nc2c(c(=O)[nH]1)n(CCC(F)(F)F)c(=O)n2[C@@H]1O[C@H]([C@@H](O)C(F)(F)F)C[C@H]1O [Compound 28]
47%

State the recorded Emax at 500 µM for this entry: C#CCn1c(=O)n([C@@H]2O[C@H]([C@@H](O)CN)C[C@H]2O)c2nc(N)[nH]c(=O)c21 [Compound 15]
< 5%

State the recorded Emax at 500 µM for this entry: CC[C@H](O)[C@@H]1C[C@@H](O)[C@H](n2c(=O)n(CC3CC3)c3c(=O)[nH]c(N)nc32)O1 [Compound 4]
81%

State the recorded Emax at 500 µM for this entry: C#CCn1c(=O)n([C@@H]2O[C@H](C(C)(C)O)C[C@H]2O)c2nc(N)[nH]c(=O)c21 [Compound 18]
< 5%

State the recorded Emax at 500 µM for this entry: C#CCn1c(=O)n([C@@H]2O[C@H](C(=O)O)C[C@H]2O)c2nc(N)[nH]c(=O)c21 [Compound 40]
< 5%

State the recorded Emax at 500 µM for this entry: CC[C@H](O)[C@@H]1C[C@@H](O)[C@H](n2c(=O)n(C[C@H](C)O)c3c(=O)[nH]c(N)nc32)O1 (single isomer, unassigned) [Compound 34]
81%
